Collected remaining activity at 10 µM values appear next to each entry.
Target: glycine binding site on the NMDA receptor (Rattus norvegicus)
Construct: Membranes were prepared from rat cerebral cortex; from tissue; host or cells: rat cerebral cortex, "buffy coat" membrane fragments
Assay: Inhibition of [^3 H]-5,7-dichlorokynurenic acid specific binding
Assay type: rat (cerebral cortex membranes)
Settings: 0.25 h, pH 7.4, 10 uM test compound; 10 nM radioligand; pH 7.4; mean ± SEM of three determinations; read-out: Inhibition of [^3 H]-5,7-Dichlorokynurenic Acid Binding, % of Control
Expressed in %, but write only the number.

>  <Structure Notation>
COC(=O)c1cc(NC(=O)N(c2ccccc2)c2ccccc2)c2c(Cl)cc(Cl)cc2n1

>  <Quantity Unit>
%

>  <Value Observed>
42

$$$$
>  <Structure Notation>
CCOC(=O)c1cc(NC(=O)N(C)C)c2c(Cl)cc(Cl)cc2n1

>  <Quantity Unit>
%

>  <Value Observed>
57

$$$$

Suppose we examine the compound CCOC(=O)c1cc(NC(=O)N(c2ccccc2)c2ccccc2)c2c(Cl)cc(Cl)cc2n1 ; what remaining activity at 10 µM value has been reported? 77

Suppose we examine the compound CCN(CC)C(=O)Nc1cc(C(=O)OC)nc2cc(Cl)cc(Cl)c12 ; what remaining activity at 10 µM value has been reported? 58

Suppose we examine the compound CCCCN(CCCC)C(=O)Nc1cc(C(=O)O)nc2cc(Cl)cc(Cl)c12 ; what remaining activity at 10 µM value has been reported? 20

Suppose we examine the compound CCCCN(CCCC)C(=O)Nc1cc(C(=O)OCC)nc2cc(Cl)cc(Cl)c12 ; what remaining activity at 10 µM value has been reported? 76

Suppose we examine the compound O=C(O)c1cc(NC(=O)N(c2ccccc2)c2ccccc2)c2c(Cl)cc(Cl)cc2n1 ; what remaining activity at 10 µM value has been reported? 25

The measured values listed here are drawn from patent US5783700A.
